Each record here notes measured Kd.
# targetOfAssay: T1, biotinylated human Sortilin monomer (human, UniProt Q99523 78-755, limits assumed, biotinylated (Sulfo-NHS-biotin))
# T1 construct: monomer cut from the Fc fusion with IdeS; used unbiotinylated in solution in some formats; also called Bt-hSort; b-H Sort
# testName: MSD-SET, Fab
Write the answer as a number in nM, unit excluded.

Below, each entry is followed by its recorded Kd result.
binder | reportedProperty | measValue
S-15-14 Fab (Fab, V domains shown, Fab by papain digestion) VH: QVQLVQSGAEVKKPGASVKVSCKASGYTFTSQYMSWVRQAPGQGLEWMGIINPYGGSTSYAQKFQGRVTMTRDTSTSTVYMELSSLRSEDTAVYYCARDPSGIAAAGPASRYYYGMDVWGQGTTVTVSS VL: EIVMTQSPATLSVSPGERATLSCRASQSVSSNLAWYQQKPGQAPRLLIYGASTRATGIPARFSGSGSGTEFTLTISSLQSEDFAVYYCQQARLGPWTFGGGTKVEIK | Kd | 0.19
S-22-9 Fab (Fab, V domains shown, Fab by papain digestion) VH: QVQLVQSGAEVKKPGSSVKVSCKASGGTFRNYAISWVRQAPGQGLEWMGGIIPIGGWANYAQKFQGRVTITADESTSTAYMELSSLRSEDTAVYYCARQGRKTGYYYYYGMDVWGQGTTVTVSS VL: DIQMTQSPSTLSASVGDRVTITCRASQSISSWLAWYQQKPGKAPKLLIYKASSLESGVPSRFSGSGSGTEFTLTISSLQPDDFATYYCQQADGHITFGGGTKVEIK | Kd | 0.0048

Field request: Kd | item: S-15-3 Fab (Fab, V domains shown, Fab by papain digestion) VH: QVQLVQSGAEVKKPGASVKVSCKASGYTFTSTYMSWVRQAPGQGLEWMGIINPYGGSTSYAQKFQGRVTMTRDTSTSTVYMELSSLRSEDTAVYYCARDPSGIAAAGPASRYYYGMDVWGQGTTVTVSS VL: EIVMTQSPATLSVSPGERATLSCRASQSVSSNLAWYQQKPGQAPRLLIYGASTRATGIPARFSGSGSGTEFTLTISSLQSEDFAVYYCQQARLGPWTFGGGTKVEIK 0.26
